Values from ChEMBL document CHEMBL1134468

Protein target, amino acids: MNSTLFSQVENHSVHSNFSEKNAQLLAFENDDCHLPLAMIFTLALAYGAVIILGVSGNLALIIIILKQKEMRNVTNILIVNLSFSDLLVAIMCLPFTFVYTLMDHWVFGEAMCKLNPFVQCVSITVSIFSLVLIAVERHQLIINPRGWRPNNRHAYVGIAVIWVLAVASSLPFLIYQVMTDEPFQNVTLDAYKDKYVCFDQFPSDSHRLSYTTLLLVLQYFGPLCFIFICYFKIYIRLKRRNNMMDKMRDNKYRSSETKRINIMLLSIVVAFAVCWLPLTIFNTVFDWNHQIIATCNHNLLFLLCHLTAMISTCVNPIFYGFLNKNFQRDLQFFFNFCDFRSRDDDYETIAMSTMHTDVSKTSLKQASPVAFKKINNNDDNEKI
Where a SMILES comes first, the peptide text is derived from it. The star is where a group is joined. Argψ(CH2NH)TyrNH2 = N=C(N)NCCC[C@@H](CN[C@@H](Cc1ccc(O)cc1)C(N)=O)N*
quantity_kind: Ki (nM)

compound="CC[C@H](C)[C@H](N)C(=O)N[C@@H](CC(N)=O)C(=O)N1CCC[C@H]1C(=O)N[C@H](C(=O)N[C@@H](Cc1ccc(O)cc1)C(=O)N[C@@H](CCCNC(=N)N)C(=O)N[C@@H](CC(C)C)C(=O)N[C@@H](CCCNC(=N)N)CN[C@@H](Cc1ccc(O)cc1)C(N)=O)[C@@H](C)CC (H-INPIYRL-{Argψ(CH2NH)TyrNH2})" unit_abbrev=nM observed_result=34.8
compound=CC[C@H](C)[C@H](N)C(=O)N[C@@H](CC(N)=O)C(=O)N1CCC[C@H]1C(=O)N[C@@H](CSSC[C@H](NC(=O)[C@@H]1CCCN1C(=O)[C@H](CC(N)=O)NC(=O)[C@@H](N)[C@@H](C)CC)C(=O)N[C@@H](Cc1ccc(O)cc1)C(=O)N[C@@H](CCCN=C(N)N)C(=O)N[C@@H](CC(C)C)C(=O)N[C@@H](CCCN=C(N)N)C(=O)N[C@@H](Cc1ccc(O)cc1)C(=O)OC)C(=O)N[C@@H](Cc1ccc(O)cc1)C(=O)N[C@@H](CCCN=C(N)N)C(=O)N[C@@H](CC(C)C)C(=O)N[C@@H](CCCN=C(N)N)C(=O)N[C@@H](Cc1ccc(O)cc1)C(=O)OC unit_abbrev=nM observed_result=4.8
compound=CC[C@H](C)[C@H](N)C(=O)N[C@@H](CC(N)=O)C(=O)N1CCC[C@H]1C(=O)N[C@@H](CSSC[C@H](NC(=O)[C@@H]1CCCN1C(=O)[C@H](CC(N)=O)NC(=O)[C@@H](N)[C@@H](C)CC)C(=O)N[C@@H](Cc1ccc(O)cc1)C(=O)N[C@@H](CCCNC(=N)N)C(=O)N[C@@H](CC(C)C)C(=O)N[C@@H](CCCNC(=N)N)CN[C@@H](Cc1ccc(O)cc1)C(N)=O)C(=O)N[C@@H](Cc1ccc(O)cc1)C(=O)N[C@@H](CCCNC(=N)N)C(=O)N[C@@H](CC(C)C)C(=O)N[C@@H](CCCNC(=N)N)CN[C@@H](Cc1ccc(O)cc1)C(N)=O unit_abbrev=nM observed_result=2.3
compound="CC[C@H](C)[C@H](N)C(=O)N[C@@H](CC(N)=O)C(=O)N1CCC[C@H]1C(=O)N[C@H](C(=O)N[C@@H](Cc1ccc(O)cc1)C(=O)N[C@@H](CCCNC(=N)N)C(=O)N[C@@H](CC(C)C)C(=O)N[C@@H](CCCNC(=N)N)C(=O)N[C@@H](Cc1ccc(O)cc1)C(=O)OC)[C@@H](C)CC (H-INPIYRLRY-OMe)" unit_abbrev=nM observed_result=25.7
compound=CC[C@H](C)[C@H](N)C(=O)N[C@H]1CCC(=O)NC[C@@H](C(=O)N[C@@H](Cc2ccc(O)cc2)C(=O)N[C@@H](CCCNC(=N)N)C(=O)N[C@@H](CC(C)C)C(=O)N[C@@H](CCCNC(=N)N)CN[C@@H](Cc2ccc(O)cc2)C(N)=O)NC(=O)[C@@H]2CCCN2C(=O)[C@@H](NC(=O)[C@@H](N)[C@@H](C)CC)CCC(=O)NC[C@@H](C(=O)N[C@@H](Cc2ccc(O)cc2)C(=O)N[C@@H](CCCNC(=N)N)C(=O)N[C@@H](CC(C)C)C(=O)N[C@@H](CCCNC(=N)N)CN[C@@H](Cc2ccc(O)cc2)C(N)=O)NC(=O)[C@@H]2CCCN2C1=O unit_abbrev=nM observed_result=0.46

---

Target: Neuropeptide Y receptor type 2 (Homo sapiens, UniProt P49146)
Sequence (P49146 whole entry): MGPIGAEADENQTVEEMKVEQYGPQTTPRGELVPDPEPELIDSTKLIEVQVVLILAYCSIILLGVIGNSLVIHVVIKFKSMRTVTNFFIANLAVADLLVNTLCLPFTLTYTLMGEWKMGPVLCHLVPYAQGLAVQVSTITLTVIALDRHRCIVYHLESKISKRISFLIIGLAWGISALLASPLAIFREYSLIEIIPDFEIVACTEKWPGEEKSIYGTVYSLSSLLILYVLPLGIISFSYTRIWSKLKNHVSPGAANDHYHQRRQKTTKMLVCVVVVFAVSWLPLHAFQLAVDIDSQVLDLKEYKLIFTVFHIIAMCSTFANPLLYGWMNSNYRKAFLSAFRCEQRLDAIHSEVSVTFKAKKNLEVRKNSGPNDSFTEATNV
Assay: Affinity for cloned Y2 receptor using [125I]PYY as radioligand
pKi: −log10 of the molar value.
quantity_kind: pKi

substance=H-INPIYRLRY-NH2 quantity_kind=pKi observed_result=7.95
